Measured values drawn from ChEMBL document CHEMBL1123709 for this set.

- Study System: Adrenergic receptor beta (Rattus norvegicus, UniProt P18090+P10608+P26255)
- Measurement Notes: Binding affinity against beta adrenergic receptor from rat lung tissues was determined
- Assay type: protein assay
Measured Attribute: Ki (nM)
Answers are plain numbers, in nM.

Molecule | Measured Result
CC1(NC(=O)CBr)CCC(C(C)(C)NCC(O)COc2cccc3[nH]c(C#N)cc23)CC1 (stereo unspecified) | 2.78
CC1(NCC(O)COc2cccc3[nH]ccc23)CCC(C(C)(C)NC(=O)CBr)CC1 (stereo unspecified) | 1.34
CC1(NC(=O)CBr)CCC(C(C)(C)NCC(O)COc2cccc3[nH]ccc23)CC1 (stereo unspecified) | 4.46
C=CCc1ccccc1OCC(O)CNC(C)(C)C1CCC(C)(NC(=O)CBr)CC1 (stereo unspecified) | 19.8
C=CCc1ccccc1OCC(O)CNC1(C)CCC(C(C)(C)NC(=O)CBr)CC1 (stereo unspecified) [BROMOACETYL ALPRENOLOL MENTHANE] | 126

Ask | Which Ki is reported for this molecule? CC1(NCC(O)COc2cccc3[nH]c(C#N)cc23)CCC(C(C)(C)NC(=O)CBr)CC1 (stereo unspecified)
Reply | 1.49
